- test-description: Cmax value in Male Sprague-Dawley Rat at dose 49.4 (mg/kg po)
- Type: ADME, organism-based
- Design: dose 49.4 mg/kg, route oral
- study-conditions: in vivo
measured-quantity: Cmax (ng/mL)

* CC(=O)NC[C@H]1CC(c2ccc(N3CCN(C(=O)CO)CC3)c(F)c2)=NO1 | 6170

----------
- test-description: Tmax value in Male Sprague-Dawley Rat at dose 49.4 (mg/kg po) [tmax (h)]
- Format: ADME, organism-based
- study-conditions: in vivo
measured-quantity: Tmax (h)

• CC(=O)NC[C@H]1CC(c2ccc(N3CCN(C(=O)CO)CC3)c(F)c2)=NO1 = 2.5

----------
- test-description: Cmax value in Male Sprague-Dawley Rat at dose 10.1 (mg/kg iv)
- Assay type: ADME, organism-based
- Design: dose 10.1 mg/kg, route intravenous
- study-conditions: in vivo
measured-quantity: Cmax (ng/mL)

- CC(=O)NC[C@H]1CC(c2ccc(N3CCN(C(=O)CO)CC3)c(F)c2)=NO1: 17700

----------
- Test system: Staphylococcus aureus
- test-description: In vitro minimum inhibitory concentration (MIC) against Staphylococcus aureus UC9213
- Type: functional
// reported MIC per item
measured-quantity: MIC

* CC(=O)NC[C@@H]1CC(c2ccc(C3=CCN(C(=O)CO)CC3)cc2)=NO1 | > 16 µg/mL
* CC(=O)NCC1CC(c2ccc(Br)cc2)=NO1 (stereo not drawn) | > 16 µg/mL
* CC(=O)NC[C@H]1CC(c2ccc(F)c(F)c2)=NO1 | > 16 µg/mL

These measurements were taken from ChEMBL document CHEMBL1144880.
